Test system: Saccharomyces cerevisiae
ASSAY PROTOCOL: transcriptional activation domain activity (GFP:mCherry ratio, weighted mean of sorted bins, harmonized to initial dataset scale) (arbitrary fluorescence ratio units); higher = stronger transcriptional activation
CONDITION SET: beta-estradiol 1 µM; induction time 4 h
QUANTITY: transcriptional activation domain activity
One number for each entry.

Solved entries (count: 3):
>>> readout_number("MYDFFLFLSFLPFPSPSLLCFLILFSFIYLLLFHFYIYIYICLFLSFYIHAFV")
10600
>>> readout_number("RRRVNLLVCTCGMLISLIVVGGLGTTHRGGPFNKPVGITIVVFSYINIICFNF")
45300
>>> readout_number("VMPTWLWMPLLLVANFFCRFFLFHLIICSYIYPLLYVQLMWVFWFIWRGVFSF")
55700

# input for lookup
What value of measured transcriptional activation domain activity is listed for MPLRLRCNCILFYLLFFPLFFFNSTCDFSILLVIFFYSTFSLDFSSFLLFFFF ?
55500

* * *

Test system: Saccharomyces cerevisiae
ASSAY PROTOCOL: transcriptional activation domain activity (GFP:mCherry ratio, weighted mean of sorted bins, harmonized to initial dataset scale) (arbitrary fluorescence ratio units); higher = stronger transcriptional activation
CONDITION SET: beta-estradiol 1 µM; induction time 4 h
// label = Criterion met if transcriptional activation domain activity is not less than 50000, otherwise Criterion not met

A selection of reference data follows.
>>> label_value("KIHLVNIAQVVVFFIYRFLYGLIPLFEISTCAYYPLLVSLWHLDYLLFYTVMF")
"Criterion met"
>>> label_value("YREIPPEQLHGFPRIVDDINYNPVFLFDTFAAYTTLINYWMHMLILRSNTFLL")
"Criterion met"
>>> label_value("SDDGGSSSEIIRVLGGPSIGDIRSRLIRLMPSAPPNSPLDAICRLLAYRLPVQ")
"Criterion not met"
>>> label_value("SICRLGVGLSITGYRLGSMVLLRHDLRLIVTVFSMHLKYFVSFARPSMKILLR")
"Criterion met"
>>> label_value("IVEGLLGVDFIWQDNLPDLIDQFTNLLTLGLDFQAIDFHGGLSWNYLPSTFIN")
"Criterion met"
>>> label_value("YVASQLIEIFLPEALFSVVYLSNAGKCLSREEFLVQFTFLVRLFKHEFVYPWN")
"Criterion not met"
>>> label_value("MFCLRSWIPVLFFLLRTHASPVYLVLFISATYFLNRPCVYCSLLLFILVVALF")
"Criterion met"
>>> label_value("IIQCLVLGKYTKCAPRTIETLLLYLHLKYNQHEDNQMEIWVLLGVIVRLALRM")
"Criterion not met"

Kindly determine if transcriptional activation domain activity recorded for SEPELYVPQFKLDPVNGFWFPHFVKYIILILMLGLYVLIIFWTFMICKVVYRL is above or exactly 50000.
Criterion not met

I'd appreciate it if you could say whether MLYVRCVISYIHIYNIFIHVTVSVHPEWWAFVSLTCFTLHVYLLHFLSAVARC has transcriptional activation domain activity at least equal to 50000.
Criterion met

Hi, just wondering whether KFYARILKLLLLLNHILIIAGVNESPYSKDKVIRYLFNMFRLWTTKRSAKENQ shows transcriptional activation domain activity of 50000 or higher.
Criterion met

Answer whether transcriptional activation domain activity of ISCLGLTGWAGRFGSLYYIISMGGCSLSLGAMIAHVELKDSANCWWWFRYGFW is greater than or equal to 50000.
Criterion met

# check: transcriptional activation domain activity of MCLLGDGRHPEFFIFYFLYHFFLLYLLFYPQAFSRYLFIWMGCLNCFYFRFGL is greater than or equal to 50000
Criterion not met

Answer whether transcriptional activation domain activity of GTAIEGLVIRFYIRKYEDSNNNNLEQNKTGQVRVSSPRAYLRIVGYTWVLAWF is greater than or equal to 50000.
Criterion not met

Is it the case that VILYLLMLIGNVTVVSWIVSLFFLSRKSYLKLGFKMVLVRKWYFKNVCQYVDY has transcriptional activation domain activity reaching or exceeding 50000?
Criterion met

// inclusive: transcriptional activation domain activity at least 50000? input: EVMKITPVQKQTRAGQRTRFKAFVAIGDSNGHVGLGVKCAKEVASAIRGAIIL
Criterion met

Is reported transcriptional activation domain activity greater than or equal to 50000 here: VVEALRLPLKPIQLLSKLFLRRLYEQDQLEEIRGIAKQIKIELYLLVALNVLL
Criterion met

Could you tell me if the measured transcriptional activation domain activity of MGRLLLLICFNTSGRLPFLLPLLLFFFFLLFFLYPPLHIFSFSFSLSPSNVPP reaches 50000 or more?
Criterion not met

Given the entry EAGREAGKAGREEKQVKQDEERTAEDTETGKHEEDRNGEQKQRDRKTRRGKIR , answer whether its transcriptional activation domain activity meets or surpasses 50000.
Criterion not met

Given CGQILLTICLLPLLFFFFFFFFWSKGVSPFLSHLSSVLLIMLGRIMQIVVGLW , state whether its transcriptional activation domain activity is at least 50000.
Criterion not met

State whether the measured transcriptional activation domain activity reaches 50000, counting equality as reaching it, for MSEREREHRGGRQDRLTGRSRSRSVRRHEKGDKGADDGRQARERHRSRSPARK
Criterion not met

Decide: is the reported value of transcriptional activation domain activity for VGEWMGGGVGCLAAWLGHGIRIFGGTEYWLVPEFFFPLFLFFSFPPWSLVLFC equal to or greater than 50000?
Criterion met

Reported transcriptional activation domain activity reaches at least 50000 for TPSTCLSFLPFFPLLLPLFFSFPLSLIFFLCNFSFQFFFSSCFLSFYLFVVSF ?
Criterion met

In plain terms: is recorded transcriptional activation domain activity at least 50000 for AASPEEVIAPKSKRQPRRNTQAVSADPASLTPPADTKPKRSRAPRKAKVTIAE ?
Criterion not met

Please indicate if the recorded transcriptional activation domain activity for ANPLSDSASFLSEENEDDAFGALNYNSLDATTMSAFDNNVDPFNILKSSPAQD meets or exceeds 50000.
Criterion met

Say whether MTVEPSISLLFIDYLLFLIPFLSLFILFSLVLLLSYISPCNFFFFAISSQLPW shows transcriptional activation domain activity of 50000 or more.
Criterion not met

* * *

System: Saccharomyces cerevisiae
ASSAY PROTOCOL: transcriptional activation domain activity (GFP:mCherry ratio, weighted mean of sorted bins, harmonized to initial dataset scale) (arbitrary fluorescence ratio units); higher = stronger transcriptional activation
CONDITION SET: beta-estradiol 1 µM; induction time 4 h
QUANTITY: transcriptional activation domain activity
Answers are plain numbers.

Use these answered entries as a reference point.
>>> readout_number("VLHESCGSPVFLLFSCFILLSLWRIVGRISLSILLVLRSLFCCYFPSLLFWLW")
36900
>>> readout_number("GWFGAVFGVLYFFLFIFGITSVYIGFSFLLYSICLSHGTVWHPLCQFHFFYFI")
28100

Attention now shifts to the item below.
Field request: transcriptional activation domain activity | item: VIEKLFWRVSALYICTHQFLLWALFMIRDYLLSKYPGSQLVLRCHMVLKIMLF
46400

* * *

Tested on: Saccharomyces cerevisiae
ASSAY PROTOCOL: transcriptional activation domain activity (GFP:mCherry ratio, weighted mean of sorted bins, harmonized to initial dataset scale) (arbitrary fluorescence ratio units); higher = stronger transcriptional activation
CONDITION SET: beta-estradiol 1 µM; induction time 4 h
QUANTITY: transcriptional activation domain activity

Would you please look over these solved cases?
>>> result("TGGISELQNALDDTRASFAYVRLQYANDKESKREKFILVIWIGKSVKVMRKAK")
40200
>>> result("WYTTISSTGLLSLLLYSLPFQPARLWVLGGILYIFSLVSFCALLLVHLVRFLV")
47500
>>> result("TLMVLCENSYTTISRFILLDSMLLFFTFTTMLCFARFHNLQSRSFSFQWWLWI")
51800
>>> result("EAATKVDAAADGTDEVADRIADLDVSTSSNSKKKKKNSKSKKKAAKEEPVRLR")
47300
>>> result("FLRGLVVLLWSLDSLHLAFIVHGLYYYLIQNYGNYFSLFKPVWSFVGQILVSS")
57300
>>> result("PSGIIVLVICTLGLLCCTIMIILIFYFRYFKPIMSSSPIFCYLQLVGISMAYI")
46000

Batch request: transcriptional activation domain activity per item, same order as input.
1. ATVNLVINFTEMTNLMRALLILYRLKERVLSMAKRLELAELRKSKSINVNLTL
2. TPSSTATTAAPAATSAATPSLFSKPATTSAAPATATAAASTPSGNLFGAKAAA
3. MPNAGIWCARWFIPLLFLPLPSASPYFLTVFIFSLIVQARPCFYCILMLTALF
4. MFTGTLWLAFFLDCCLWWYMMFLCFWYEACLHVLLLGFHVYCLLWCMILSLSL
5. RLPNEWGWVLNVHLCIFYTIAFCFSVYQFCLDVIIGFPQMPWLESLSLLLPVL
6. KGFSLTELVFWLWSLGFILDELVGFSDAGFTLYVMSLWNWFDLIILLLLCSYA

1. 60400
2. 47500
3. 58200
4. 58200
5. 37500
6. 49900

Provide the documented transcriptional activation domain activity with Saccharomyces cerevisiae as the system for IVVVVSPGVLHVDVGITILYGEVIVGLRTGTKDVLLRWKIVQVERRWLGYTPE
30500
